Overview of recorded IC50 for various compounds
Test system: EBC-1
measurement protocol: cell viability / antiproliferative activity (WST-8), EBC-1 cells
Assay type: cell-based, human
details: Homo sapiens; EBC-1 lung cancer cells; 72 hours

Look over these answered cases.
N#Cc1cccc(-c2ccc(=O)n(Cc3cccc(-c4ncc(OCC5CCN(Cc6cn(C7CCC(=O)NC7=O)nn6)CC5)cn4)c3)n2)c1 (stereo not drawn)	< 100 nM
Cc1nn(C2CCC(=O)NC2=O)c(=O)c2cc(N3CCN(CCC(=O)N4CCC(COc5cnc(-c6cccc(Cn7nc(-c8cccc(C#N)c8)ccc7=O)c6)nc5)CC4)CC3)ccc12 (stereo not drawn)	< 100 nM

Here's the next entry for you.
# IC50 of N#Cc1cccc(-c2ccc(=O)n(Cc3cccc(-c4ncc(OCC5CCN(CC(=O)N6CCN(c7ccc(NC8CCC(=O)NC8=O)c(F)c7)CC6)CC5)cn4)c3)n2)c1 (stereo not drawn) = < 100 nM

----------
System: c-MET
measurement protocol: c-MET protein degradation (Simple Western), EBC-1 cells
Assay type: cell-based, human
details: EBC-1 lung cancer cells, c-MET overexpressing; 48 hours
property label: DC50

Look over these answered cases.
Cc1nn(C2CCC(=O)NC2=O)c(=O)c2ccc(N3CCN(c4ccc(NC(=O)CN5CCC(COc6cnc(-c7cccc(Cn8nc(-c9cccc(C#N)c9)ccc8=O)c7)nc6)CC5)cc4)CC3)cc12 (stereo not drawn)	< 100 nM
N#Cc1cccc(-c2ccc(=O)n(Cc3cccc(-c4ncc(OCC5CCN(c6ccc(NC7CCC(=O)NC7=O)cc6F)CC5)cn4)c3)n2)c1 (stereo not drawn)	< 100 nM

# DC50 of N#Cc1cccc(-c2ccc(=O)n(Cc3cccc(-c4ncc(OCC5CCN(CC(=O)N6CCN(CC7CCN(c8ccc(NC9CCC(=O)NC9=O)cc8F)CC7)CC6)CC5)cn4)c3)n2)c1 (stereo not drawn) = < 100 nM

----------
Overview of recorded DC50 for various compounds
Test system: c-MET
measurement protocol: c-MET protein degradation (Simple Western), EBC-1 cells
Assay type: cell-based, human
details: EBC-1 lung cancer cells, c-MET overexpressing; 48 hours

Look over these answered cases.
Cn1cc(-c2cnc3c(nnn3C[C@@H]3CN(c4ncc(-c5ccc(CN6CCN(CC(=O)N7CCN(c8ccc(NC9CCC(=O)NC9=O)cc8F)CC7)CC6)cc5)cn4)CCO3)n2)cn1 (some centres unmarked)	< 100 nM
Cc1nn(C2CCC(=O)NC2=O)c(=O)c2cc(N3CCN(CCN4CCC(COc5cnc(-c6cccc(Cn7nc(-c8cccc(C#N)c8)ccc7=O)c6)nc5)CC4)CC3)ccc12 (centres unmarked)	> 1000 nM
N#Cc1cccc(-c2ccc(=O)n(Cc3cccc(-c4ncc(OCC5CCN(CC(=O)N6CCN(c7ccc(NC8CCC(=O)NC8=O)c(F)c7)CC6)CC5)cn4)c3)n2)c1 (centres unmarked)	< 100 nM
N#Cc1cccc(-c2ccc(=O)n(Cc3cccc(-c4ncc(OCC5CCN(Cc6cn(C7CCC(=O)NC7=O)nn6)CC5)cn4)c3)n2)c1 (centres unmarked)	< 100 nM

Here's the next entry for you.
# DC50 of N#Cc1cccc(-c2ccc(=O)n(Cc3cccc(-c4ncc(N5CCN(CC6CCN(c7ccc(NC8CCC(=O)NC8=O)cc7F)CC6)CC5)cn4)c3)n2)c1 (centres unmarked) = < 100 nM

----------
System: c-MET
measurement protocol: c-MET protein degradation (Simple Western), EBC-1 cells
Type: cell-based, human
details: EBC-1 lung cancer cells, c-MET overexpressing; 48 hours
Procedure: In order to assess the resolution of the compound of the present invention for c-MET expressed in cells, cells were dispensed in a 12-well plate at a concentration of 2×10^5 cells/well, and then gastric cancer cell lines were treated with samples for 24 hours and lung cancer cell lines were treated for 48 hours. […] Protein expression was then measured using the Simple Western Automated Western Blot System Abby instrument using 3 μg of protein for each sample. […]
property label: DC50

N#Cc1cccc(-c2ccc(=O)n(Cc3cccc(-c4ncc(-c5cccc(CN6CCN(c7ccc(NC8CCC(=O)NC8=O)cc7F)CC6)c5)cn4)c3)n2)c1 (stereo not drawn) [ICT-0001434]	< 100 nM
N#Cc1cccc(-c2ccc(=O)n(Cc3cccc(-c4ncc(OCC5CCN(C(=O)CN6CCN(c7ccc(NC8CCC(=O)NC8=O)cc7F)CC6)CC5)cn4)c3)n2)c1 (stereo not drawn) [ICT-0001494]	< 100 nM

Here's the next entry for you.
# DC50 of N#Cc1cccc(-c2ccc(=O)n(Cc3cccc(-c4ncc(OCC5CCN(CC(=O)N6CC(N7CCN(c8ccc9c(=O)n(C%10CCC(=O)NC%10=O)ncc9c8)CC7)C6)CC5)cn4)c3)n2)c1 (stereo not drawn) [ICT-0001232] = < 100 nM

----------
Test system: c-MET
measurement protocol: c-MET protein degradation (Simple Western), EBC-1 cells
Format: cell-based, human
details: EBC-1 lung cancer cells, c-MET overexpressing; 48 hours
property label: DC50

N#Cc1cccc(-c2ccc(=O)n(Cc3cccc(-c4ncc(OCC5CCN(CCN6CCN(c7ccc8c(=O)n(C9CCC(=O)NC9=O)ncc8c7)CC6)CC5)cn4)c3)n2)c1 (centres unmarked)	> 1000 nM
Cc1nn(C2CCC(=O)NC2=O)c(=O)c2ccc(N3CCN(C(=O)C4CN(CC(=O)N5CCC(COc6cnc(-c7cccc(Cn8nc(-c9cccc(C#N)c9)ccc8=O)c7)nc6)CC5)C4)CC3)cc12 (centres unmarked)	100 to 1000 nM
N#Cc1cccc(-c2ccc(=O)n(Cc3cccc(-c4ncc(-c5cccc(CN6CCC(CN7CCN(c8ccc(NC9CCC(=O)NC9=O)cc8F)CC7)CC6)c5)cn4)c3)n2)c1 (centres unmarked)	< 100 nM
Cc1nn(C2CCC(=O)NC2=O)c(=O)c2ccc(N3CCN(CCN4CCC(COc5cnc(-c6cccc(Cn7nc(-c8cccc(C#N)c8)ccc7=O)c6)nc5)CC4)CC3)cc12 (centres unmarked)	< 100 nM

Here's the next entry for you.
# DC50 of N#Cc1cccc(-c2ccc(=O)n(Cc3cccc(-c4ncc(OCC5CCN(CC(=O)N6CCC(CN7CCN(c8ccc(NC9CCC(=O)NC9=O)cc8F)CC7)CC6)CC5)cn4)c3)n2)c1 (centres unmarked) = < 100 nM
